Assay: calcium signal blockers in parental CHO-K1 cells – cell-based, Fluo-8 calcium fluorescence, full deck, 1536-well, counter-screen for M1 antagonist project, primary screen (AID 602250);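 note: 0% = DMSO plus EC80 ATP and 100% = DMSO alone without ATP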
Measurement Parameters: ATP-induced calcium, Fluo-8 fluorescence, at 3 µM
Among all 360,000 compounds or so, about 2,200 (0.61%) were called active.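 Rule for the calls: active = inhibition above a per-plate cutoff, the plate's mean sample inhibition plus 3 SD (cut at about 24% in these data); inactive = the rest.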 What follows is part of a selection rich in actives, with near analogues and random picks from the rest.
Select the matching outcome among y = active, n = inactive

// below: answered compounds
CC1(C)CC(=O)c2cnc3nc4ccccc4n3c2C1 | n
COc1ccccc1Cc1c(-c2ccc(Cl)cc2)nc2c3ccccc3ccn12 | n
C=CCO/N=C(\C)c1c(O)c(C)c(-c2ccccc2)n(-c2ccccc2)c1=O | y
Cc1ccsc1C(=O)NCCc1ccco1 | n

Qu. Look up the recorded call for O=C(NCC(c1cccs1)N1CCOCC1)c1cc(Cl)ccc1[N+](=O)[O-] (stereo unspecified) in this test.
Ans. n

Qu. I'd appreciate the recorded outcome for Cc1ccc(S(=O)(=O)c2ccc(Cl)cc2)cc1S(=O)(=O)NC(C(=O)O)C(C)C (stereo unspecified) from this test.
Ans. n

----------
Assay: calcium signal blockers in parental CHO-K1 cells – cell-based, Fluo-8 calcium fluorescence, full deck, 1536-well, counter-screen for M1 antagonist project, primary screen (AID 602250);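 note: 0% = DMSO plus EC80 ATP and 100% = DMSO alone without ATP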
Measurement Parameters: ATP-induced calcium, Fluo-8 fluorescence, at 3 µM, hits give high values
The whole screen tested about 360,000 compounds, of which about 2,200 (0.61%) were called active. The list comes from a sample in which actives are over-represented; it also holds close analogues and randomly drawn compounds.
Quantity Name: inhibition (%)
# number only, unit % dropped from output

Here's what some known entries look like.
Cc1ccc(-n2nc3c(=O)n(C(C)C(=O)NCc4ccc5c(c4)OCO5)nc(C)c3c2C)cc1 (stereo not given) | -17.4
CCOC(=O)c1c(NC(=O)C2CC=CCC2C(=O)O)sc(C)c1CC (stereo not given) | -0.11
O=C(Cn1nc(C(F)(F)F)c2c1CCC2)NCc1ccc(F)cc1 | 25
COc1cccc(CNC(=O)CCC2CCCN(C(=O)c3cc(C)[nH]n3)C2)c1 (stereo not given) | -15.8

Qu. # inhibition lookup, item CCC(C)NC(=O)Cn1nc(C(F)(F)F)c2c1CCC2 (stereo not given)
Ans. -24.7

Qu. Quick check: inhibition of O=C(C1CCN(S(=O)(=O)c2cccs2)CC1)N1CCCCCC1 ?
Ans. -13.2

Qu. Look up inhibition for this compound: CN(Cc1nc(-c2cnccn2)no1)Cc1n[nH]c2c1CCCCC2
Ans. -7.73

Qu. Sample CCc1nnc(NC(=O)CSCc2cc(=O)n3cc(C)sc3n2)s1 — what was its inhibition?
Ans. -12.4

Qu. I have this compound here, CN1OC[C@@H]2CN(C(=O)c3cccc4ccccc34)[C@H](c3ccc(N4CCCCC4)cc3)C[C@@H]21 , and I need its recorded inhibition.
Ans. 16.5

Qu. What inhibition value was documented for this compound, Cc1cc(NC(=O)Cn2nc(C(F)(F)F)c3c2CCCC3)no1 ?
Ans. -9.16

----------
Assay: calcium signal blockers in parental CHO-K1 cells – cell-based, Fluo-8 calcium fluorescence, full deck, 1536-well, counter-screen for M1 antagonist project, primary screen (AID 602250);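 note: 0% = DMSO plus EC80 ATP and 100% = DMSO alone without ATP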
Measurement Parameters: ATP-induced calcium, Fluo-8 fluorescence, at 3 µM
In all, about 360,000 compounds went through this assay and about 2,200 (0.61%) were called active.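 How the source made its calls: active means inhibition above a per-plate cutoff, the plate's mean sample inhibition plus 3 SD (cut at about 24% in these data); inactive means the rest.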 The sample holds actives, similar compounds and a random draw of the others, so the mix is not that of the screen.
Pick one and only one: active, inactive

Known results for compounds:
COc1cc(-c2nnc(NC(=O)CS(=O)(=O)c3ccc(Cl)cc3)o2)cc(OC)c1OC | inactive
O=C1OC(Cc2ccccc2)C(c2ccccc2)C1=O (centres undefined) | inactive
CN1OC[C@@H]2CN(C(=O)c3cccnc3)[C@H](c3ccc(N4CCCCC4)cc3)C[C@@H]21 | inactive
O=C(Nc1ccc(Cl)cc1)c1csc([C@@H]2O[C@H](CO)[C@H](O)[C@H](O)[C@H]2O)n1 | inactive
CCC(C)(C)NC(=O)C(c1ccc(O)cc1)N(C(=O)Cn1nnc2ccccc21)c1ccc(NC(C)=O)cc1 (centres undefined) | inactive

Qu. What did this assay record as the result for COc1cc(-c2nnc(Cn3cc(C(F)(F)F)ccc3=O)o2)cc(OC)c1OC ?
Ans. active

Qu. Outcome logged for CC(C)Oc1ccc(CC(=O)NNC(=S)Nc2ccc(Br)cc2)cc1 in this assay:
Ans. inactive

Qu. Hi team, can someone confirm the assay call for CCCc1nc2ccccc2c(C(=O)OCc2nnc(-c3cc(OC)c(OC)c(OC)c3)o2)c1CC ?
Ans. inactive

Qu. Entry COc1ccc(OC)c(C2C3=C(N=c4s/c(=C\c5cccc(O)c5)c(=O)n42)c2ccccc2CC3)c1 (centres undefined) : call = ?
Ans. inactive

----------
Assay: calcium signal blockers in parental CHO-K1 cells – cell-based, Fluo-8 calcium fluorescence, full deck, 1536-well, counter-screen for M1 antagonist project, primary screen (AID 602250);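 note: 0% = DMSO plus EC80 ATP and 100% = DMSO alone without ATP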
Measurement Parameters: ATP-induced calcium, Fluo-8 fluorescence, at 3 µM, hits give high values
In all, about 360,000 compounds went through this assay and about 2,200 (0.61%) were called active. The sample as a whole holds a higher share of actives than the screen did.
Quantity Name: inhibition (%)
Expressed in %, but write only the number.

Examples with their reported inhibition follow.
O=C(NCC(=O)N1CCC2(CC1)NCCc1[nH]cnc12)c1ccc(Br)cc1 | -11.4
CCN(CC)CCn1c2c(c(SCC(=O)Nc3nc4ccccc4s3)nc1=O)CCCC2 | 28.3
COc1ccc(C2(CNC(=O)Cc3ccc(OC)c(OC)c3)CCCC2)cc1 | 0.54
CCc1nnc(NC(=O)CSc2nc(SC)ns2)s1 | -15.7
Cc1ccc2nc(NC(=O)CSc3nc(=O)n(CCCN(C)C)c4c3CCC4)sc2c1 | -19.7

Now look at this entry.
Qu. May I ask what inhibition has been recorded for CCN(CC)CC(=O)Nc1sc2c(c1C(=O)c1ccccc1C)CCC2 ?
Ans. 3.09

----------
Reported inhibition values for a set of compounds
Assay: calcium signal blockers in parental CHO-K1 cells – cell-based, Fluo-8 calcium fluorescence, full deck, 1536-well, counter-screen for M1 antagonist project, primary screen (AID 602250);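 note: 0% = DMSO plus EC80 ATP and 100% = DMSO alone without ATP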
Measurement Parameters: ATP-induced calcium, Fluo-8 fluorescence, at 3 µM, hits give high values
About 2,200 (0.61%) of roughly 360,000 compounds were called active. This excerpt belongs to a sample that is enriched for actives.
Output spec: scalar in %, unitless text.

Known results for compounds:
O=C(Nc1ccc(Cl)c(Cl)c1)c1ccccc1NC(=O)C1CC=CCC1C(=O)O (configuration not stated) | 3.94
COc1cc2ccc(C(C)=O)c(O)c2cc1OC | -2.14
N#Cc1c(N)sc2c1CCN(C(=O)OCc1ccccc1)C2 | -19.6

Turning now to a further compound:
Qu. Quick one: inhibition for CCc1ccccc1NC(=O)CN1CCN(C(=O)c2cc(C3CC3)nn2-c2ccccc2)CC1 ?
Ans. -11.2

----------
Collected inhibition values appear next to each entry.
Assay: calcium signal blockers in parental CHO-K1 cells – cell-based, Fluo-8 calcium fluorescence, full deck, 1536-well, counter-screen for M1 antagonist project, primary screen (AID 602250);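 note: 0% = DMSO plus EC80 ATP and 100% = DMSO alone without ATP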
Measurement Parameters: ATP-induced calcium, Fluo-8 fluorescence, at 3 µM, hits give high values
Out of some 360,000 compounds screened, about 2,200 (0.61%) were called active. For the sample, actives were picked, then their nearest neighbours and some compounds at random.
Expressed in %, but write only the number.

Below, each entry is followed by its recorded inhibition result.
FC(F)(F)Oc1ccc(NC(=S)NCc2ccccc2)cc1 | 26.5
CCN(CC)CCn1c2c(c(SCC(=O)Nc3ccc(C(C)C)cc3)nc1=O)CCC2 | -0.47
COc1cc(C(=O)NCc2cc3cc(Cl)ccc3n2C)cc(OC)c1OC | -7.3

Qu. # query: inhibition of entry CC(C)c1nc(SCC(=O)NC(=O)NC(C)(C)C)n[nH]1
Ans. -2.13

Qu. Requested read-out: inhibition. Entry: O=C(N[C@H]1C/C=C\C(c2ccc(F)cc2)N(Cc2ccccc2)C(=O)C1)OCC1c2ccccc2-c2ccccc21 (some centres not stated)
Ans. -13

----------
Assay: calcium signal blockers in parental CHO-K1 cells – cell-based, Fluo-8 calcium fluorescence, full deck, 1536-well, counter-screen for M1 antagonist project, primary screen (AID 602250);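 note: 0% = DMSO plus EC80 ATP and 100% = DMSO alone without ATP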
Measurement Parameters: ATP-induced calcium, Fluo-8 fluorescence, at 3 µM, hits give high values
About 2,200 (0.61%) of roughly 360,000 compounds were called active. The entries come from a sample that favours actives as a whole.
Reported inhibition values for a set of compounds
Report only the number, with the unit % understood.

# annotated cases, reported inhibition shown
COc1ccc(OC)c(Nc2nc3ccccc3n3cnnc23)c1 | -12.2
O=C(CNS(=O)(=O)c1ccccc1)NCC(=O)OCc1ccccc1F | -0.17
CN1CCc2c(sc3c2c(NCc2ccco2)nc2nnnn23)C1 | -19.9
CCCCC(=O)N1CC2(C)CN(C(=O)CCCC)CC(C)(C1)C2=O | -5.12
O=C(NCc1ccccc1)[C@@H]1CSC2c3ccccc3C(=O)N21 (stereo partly specified) | -4.7

Qu. Using the record for CC(=O)NCCc1ccc(S(=O)(=O)Nc2ccc(C)c(S(=O)(=O)N3CCOCC3)c2)cc1 , report its inhibition.
Ans. 11

Qu. // query inhibition value for entry CCOC(=O)C1C(=O)C=C(c2ccc(OC)cc2)CC1c1ccco1 (stereo unspecified)
Ans. -9.22
